Here, each record is paired with measured log10 IC50 data.
Target: PD-L1 protein on the surface of MC38-hPDL1 tumor cells (Homo sapiens, UniProt Q9NZQ7)
Construct: expressed in transfected cells; host or cells: MC38-hPDL1 (mouse colon cancer cells)
Sequence (Q9NZQ7 19-290): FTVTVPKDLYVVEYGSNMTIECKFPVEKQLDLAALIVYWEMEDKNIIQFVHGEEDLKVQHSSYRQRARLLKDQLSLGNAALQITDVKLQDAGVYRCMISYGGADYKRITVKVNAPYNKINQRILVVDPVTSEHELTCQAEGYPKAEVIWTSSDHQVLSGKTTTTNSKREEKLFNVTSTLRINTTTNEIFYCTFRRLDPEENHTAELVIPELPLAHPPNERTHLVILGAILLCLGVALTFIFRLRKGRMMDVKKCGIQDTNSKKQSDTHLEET
Assay: Induction of endocytosis of PD-L1 on the surface of tumor cells (flow cytometry)
Assay type: cell-based
Conditions: inducing endocytosis of PD-L1, MC38-hPDL1 cells, 16 hours incubation; read-out: MC38 IC50
Base-10 log of IC50, unit nM.

COc1cc(NCc2cnc(C(=O)Nc3cccc(-c4cccc(NC(=O)c5nc6c(n5C)CCN(C)C6)c4Cl)c3Cl)cc2OC)ccn1	0.66
COc1nc(-c2cccc(-c3cccc(NC(=O)c4nc5c(n4C)CCN(C)C5)c3Cl)c2Cl)ccc1CN1CC(O)(CO)C1	-0.05
COc1cc(-c2cccc(-c3cccc(NC(=O)c4nc5c(n4C)CCN(C)C5)c3Cl)c2Cl)ccc1CNCCO	0.18
COc1nc(-c2cccc(-c3cccc(NC(=O)c4nc5c(n4C)CCN(C)C5)c3Cl)c2Cl)ccc1CNC(CO)CO	0.00
COc1cc(C(=O)Nc2cccc(-c3cccc(NC(=O)c4nc5c(n4C)CCN(C)C5)c3Cl)c2C)ncc1CN[C@H]1CCCNC1=O	0.75
CCN1CCc2c(nc(C(=O)Nc3cccc(-c4cccc(NC(=O)c5cc(OC)c(CNc6ccnc(OC)c6)cn5)c4Cl)c3Cl)n2C)C1	1.08

Problem: Quick check: log10 IC50 of `COc1nc(-c2cccc(-c3cccc(NC(=O)c4nc5c(n4C)CCN(C)C5)c3Cl)c2Cl)ccc1CN1CC(C(=O)O)C1` ?
Solution: 0.49

Problem: Quick check: log10 IC50 of `COc1cc(C(=O)Nc2cccc(-c3cccc(NC(=O)c4nc5c(n4C)CCN(C)C5)c3Cl)c2C)ncc1CNc1ccc(C)nc1` ?
Solution: 0.95

Problem: Quick check: log10 IC50 of `COc1cc(C(=O)Nc2cccc(-c3cccc(NC(=O)c4nc5c(n4C)CCN(C)C5)c3Cl)c2C)ncc1CNC1CCOCC1` ?
Solution: 0.11

Problem: Quick check: log10 IC50 of `COc1nc(-c2cccc(-c3cccc(NC(=O)c4nc5c(n4C)CCN(C)C5)c3Cl)c2Cl)cnc1CN1CC2(C1)CN(C(C)=O)C2` ?
Solution: -0.22

Problem: Quick check: log10 IC50 of `COc1nc(-c2cccc(-c3cccc(NC(=O)c4nc5c(n4C)CCN(C)C5)c3Cl)c2C)ccc1CNC1COC1` ?
Solution: 1.04

Problem: Quick check: log10 IC50 of `COc1nc(-c2cccc(-c3cccc(NC(=O)c4nc5c(n4C)CCN(C)C5)c3Cl)c2Cl)ccc1CNC[C@H](C)O` ?
Solution: -0.15

Problem: Quick check: log10 IC50 of `CNC(=O)CNCc1cnc(C(=O)Nc2cccc(-c3cccc(NC(=O)c4nc5c(n4C)CCN(C)C5)c3Cl)c2C)cc1OC` ?
Solution: 0.36
